Study Target: Histamine H2 receptor (Homo sapiens)
Sequence (P25021 whole entry): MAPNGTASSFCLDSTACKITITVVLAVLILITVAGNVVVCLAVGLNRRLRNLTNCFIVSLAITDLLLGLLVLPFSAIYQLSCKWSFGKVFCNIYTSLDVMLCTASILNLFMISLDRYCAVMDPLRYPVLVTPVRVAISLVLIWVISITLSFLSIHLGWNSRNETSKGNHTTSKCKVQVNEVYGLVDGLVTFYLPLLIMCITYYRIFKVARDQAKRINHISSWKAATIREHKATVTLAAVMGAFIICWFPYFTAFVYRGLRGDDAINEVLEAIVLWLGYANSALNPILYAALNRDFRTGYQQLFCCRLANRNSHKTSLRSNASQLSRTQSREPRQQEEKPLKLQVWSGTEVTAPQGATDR
Test Protocol: Binding affinity to the human cortical histamine H2 receptor
pKi: −log10 of the molar value.
Measurement Kind: pKi

Would you kindly share the measured pKi for CC1CCCN(CCCOc2ccc(-c3ccc(C#N)cc3)cc2)C1 (stereo unspecified) ?
4.93

Would you kindly share the measured pKi for "CN(C)[C@@H]1CCN(CCCOc2ccc(-c3ccc(C#N)cc3)cc2)C1" ?
5.00

Would you kindly share the measured pKi for "C[C@@H]1CC[C@@H](C)N1CCCOc1ccc(-c2ccc(C#N)cc2)cc1" ?
5.04

Would you kindly share the measured pKi for "CCOC(=O)N1CCN(CCCOc2ccc(-c3ccc(Br)cc3)cc2)CC1" ?
5.78

I. CCOC(=O)N1CCN(CCCOc2ccc(-c3ccc(C#N)cc3)cc2)CC1
II. N#Cc1ccc(-c2ccc(OCCCN3CCCNCC3)cc2)cc1
Between I and II , whose measured pKi reads higher? Answer format: the label of the selected item.
II
(II: 5.11, I: 4.54)

Sourced from ChEMBL document CHEMBL1134931
